# procedureDetails: Antagonist activity at CXCR3 assessed as inhibition of ITAC-mediated cell migration in presence of 100% human serum
pIC50: −log10 of the molar value.
Use criterion met when the recorded pIC50 is no lower than 7; use criterion not met when it is lower.

>>> category("CCS(=O)(=O)CCN(C(=O)Cc1ccc(C(F)(F)F)c(F)c1)[C@H](C)c1nc2ncccc2c(=O)n1-c1ccc(C#N)cc1")
"criterion met"
>>> category("C[C@H](c1nc2ncccc2c(=O)n1-c1ccc(Cl)cc1)N(CC1CCS(=O)(=O)CC1)C(=O)Cc1ccc(F)c(C(F)(F)F)c1")
"criterion met"
>>> category("C[C@H](c1nc2ncccc2c(=O)n1-c1ccc(C#N)cc1)N(CC1CCS(=O)(=O)CC1)C(=O)Cc1ccc(C(F)(F)F)c(F)c1")
"criterion met"
>>> category("CCS(=O)(=O)CCN(C(=O)Cc1ccc(C(F)(F)F)c(F)c1)[C@H](C)c1nc2ncccc2c(=O)n1-c1ccc(F)cc1")
"criterion not met"
>>> category("C[C@H](c1nc2ncccc2c(=O)n1-c1ccc(Cl)cc1)N(CC1CCS(=O)(=O)CC1)C(=O)Cc1ccc(C(F)(F)F)c(F)c1")
"criterion met"
>>> category("C[C@H](c1nc2ncccc2c(=O)n1-c1ccc(C#N)cc1)N(CC1CCS(=O)(=O)CC1)C(=O)Cc1ccc(F)c(C(F)(F)F)c1")
"criterion met"
>>> category("CCS(=O)(=O)CCN(C(=O)Cc1ccc(F)c(C(F)(F)F)c1)[C@H](C)c1nc2ncccc2c(=O)n1-c1ccc(F)cc1")
"criterion not met"
>>> category("C[C@H](c1nc2ccccn2c(=O)c1-c1ccc(C#N)cc1)N(CC1CCS(=O)(=O)CC1)C(=O)Cc1ccc(OC(F)(F)F)cc1")
"criterion met"

Taken from BindingDB's records for doi:10.1016/j.bmcl.2011.10.120.
